Target: Inositol monophosphatase 1 (Bos taurus)
Sequence (P20456 whole entry): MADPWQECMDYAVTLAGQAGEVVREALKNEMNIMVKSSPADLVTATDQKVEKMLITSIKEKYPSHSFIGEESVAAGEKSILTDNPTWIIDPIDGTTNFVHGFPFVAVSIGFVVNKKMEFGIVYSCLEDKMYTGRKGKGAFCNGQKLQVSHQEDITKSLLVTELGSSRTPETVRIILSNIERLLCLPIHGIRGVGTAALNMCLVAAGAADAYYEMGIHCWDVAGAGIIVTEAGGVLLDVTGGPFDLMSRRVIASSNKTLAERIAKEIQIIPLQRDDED
Assay: Tested for the inhibitory activity against recombinant bovine brain myo-inositol monophosphatase
assay.endpoint: IC50 (µM)

{"record.smiles": "CC(O[C@@H]1CC[C@@H](O)C[C@@H]1O)(P(=O)(O)O)P(=O)(O)O", "system": "Inositol monophosphatase 1 (Bos taurus)", "IC50 [µM]": 4}
{"record.smiles": "O=P(O)(O)C(Oc1ccc(O)cc1)P(=O)(O)O", "system": "Inositol monophosphatase 1 (Bos taurus)", "IC50 [µM]": 27}
{"record.smiles": "O=P(O)(O)C(O)(Cc1ccc(Cl)c(Cl)c1)P(=O)(O)O", "system": "Inositol monophosphatase 1 (Bos taurus)", "IC50 [µM]": 23}
{"record.smiles": "O=C(NCc1cccc(CC(Oc2ccc(O)cc2)(P(=O)(O)O)P(=O)(O)O)c1)c1ccc(Cl)c(Cl)c1", "system": "Inositol monophosphatase 1 (Bos taurus)", "IC50 [µM]": 0.08}

a: O=P(O)(O)C(CCCCCCc1ccccc1)(O[C@@H]1CC[C@@H](O)C[C@@H]1O)P(=O)(O)O
b: O=P(O)(O)C(Oc1ccc(O)cc1O)P(=O)(O)O
Exercise: Dear colleague, could you let me know whether a or b has the lower recorded IC50? Thanks. // caller expects the label of the chosen entry
Key: a
(a: 2.5 µM, b: 40.8 µM)
